Data origin: ChEMBL document CHEMBL1777778

assay: Cmax in Hanover Wistar rat at 3 mg/kg, po; format: ADME, organism-based; design: dose 3 mg/kg, route oral; conditions: in vivo
readout.name: Cmax

For record `C[C@H](CS(C)(=O)=O)Nc1n[nH]c2nc(Oc3ccc(F)cc3F)ncc12` the listed Cmax is 446 ng/mL

---

test: Permeability across apical to basolateral side of human Caco2 cells at 10 uM after 21 days; type: ADME, cell-based; conditions: Caco-2, read-out: permeability
readout.name: Papp A→B at 10 µM (nm/s)
The figure you give is taken to be in nm/s; do not add the unit.

For record `C[C@H](CS(C)(=O)=O)Nc1n[nH]c2nc(Oc3ccc(F)cc3F)ncc12` the listed Papp A→B at 10 µM is 30

---

test: Clearance in Hanover Wistar rat at 3 mg/kg, iv; assay type: ADME, organism-based; design: dose 3 mg/kg, route intravenous; settings: in vivo
readout.name: clearance (mL/min/kg)
The figure you give is taken to be in mL/min/kg; do not add the unit.

For record `C[C@H](CS(C)(=O)=O)Nc1n[nH]c2nc(Oc3ccc(F)cc3F)ncc12` the listed clearance is 43.6

---

experiment: Half life in Hanover Wistar rat at 3 mg/kg, iv; format: ADME, organism-based; set-up: dose 3 mg/kg, route intravenous; details: in vivo
readout.name: half-life (h)
The figure you give is taken to be in h; do not add the unit.

For record `C[C@H](CS(C)(=O)=O)Nc1n[nH]c2nc(Oc3ccc(F)cc3F)ncc12` the listed half-life is 3.4

---

test: Aqueous solubility of the compound in phosphate buffer at pH 6.5 by reverse phase HPLC analysis; assay type: physicochemical
readout.name: solubility (µg/mL)
The figure you give is taken to be in µg/mL; do not add the unit.

For record `C[C@H](CS(C)(=O)=O)Nc1n[nH]c2nc(Oc3ccc(F)cc3F)ncc12` the listed solubility is 57.2

---

assay: Intrinsic clearance in human liver microsomes assessed per mg of protein; type: ADME, Microsome
readout.name: microsomal CLint (µL/min/mg)
The figure you give is taken to be in µL/min/mg; do not add the unit.

For record `C[C@H](CS(C)(=O)=O)Nc1n[nH]c2nc(Oc3ccc(F)cc3F)ncc12` the listed microsomal CLint is 0.74
